Source: patent US20220281965A1

- Subject of test: T1, mature recombinant cynomolgus GDF-15 with an N-terminal Flag and His tag, biotinylated (cynomolgus, UniProt G7PWZ3 197-308, chemically biotinylated with EZ link Sulfo-NHS-LC-Biotin, sites not stated)
- T1 construct: not shown: N-terminal Flag and His tags
- T1 sequence: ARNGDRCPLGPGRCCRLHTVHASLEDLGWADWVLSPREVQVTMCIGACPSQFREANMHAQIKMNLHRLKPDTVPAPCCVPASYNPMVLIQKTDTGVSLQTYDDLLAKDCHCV
- Assay method text: SPR Biacore 8K, 25 C, biotinylated GDF-15 on streptavidin C1 chip, Fab as analyte
Measurement label: koff (s⁻¹)
Reply numerically in s⁻¹, unit not repeated.

Answered examples (4):
Binder: AB1170242 Fab (Fab, V domains shown, Fab of the humanized antibody, expressed as in Spooner et al. 2015) VH: QVQLQESGPGLLKPSQTLSLTCTVSGFSLSTYGMGVGWIRQPAGKGLEWLANIWWNDDKYYNSALKSRLTISKDTSKNQVSLKLSSVTAADTAVYYCAQEVYGWFAYWGQGTLVTVSS VL: DIQMTQSPSTLSASVGDRVTITCKASQNVGTNVAWYQQKPGQPPKALIYSASYRYSGVPDRFSGSGSGTDFTLTISSLQAEDVAVYYCQQYNSYPLTFGQGTKLEIK
Unit label: s⁻¹
koff: 0.0245

Binder: AB1170243 Fab (Fab, V domains shown, Fab of the humanized antibody, expressed as in Spooner et al. 2015) VH: QVQLVQSGSELKKPGASVKVSCKASGYTFTDYNMDWIRQSPGKGLEWIGDINPNNGGTFYNQKFKDRATLTVDKSTSTAYMELRSLRSDDTAVYYCAREEKLYFGLMDYWGQGTTVTVSS VL: DIQMTQSPSSLSASVGDRVTITCRASENIYSYLAWYQQKPGKAPKLLVYNAKTLAEGVPSRFSGSGSGIDFTLTISSLQPEDFATYYCQHQYGSPPTFGQGTKLEIK
Unit label: s⁻¹
koff: 0.00169

Binder: AB1170244 Fab (Fab, V domains shown, Fab of the humanized antibody, expressed as in Spooner et al. 2015) VH: EVQLVESGGGLVKPGGSLRLSCAASGFTFSSYAMSWVRQAPGKGLEWVAYISSGGDNIYYADTVKGRFTISRDNSKNTLYLQMNSLKTEDTAVYYCTRALVENAYFDYWGQGTTVTVSS VL: DSVLTQSPDSLAVSLGERATINCRASKSVSTSTYSYMHWYQQKPGQPPKLLIKYASYLESGVPDRFSGSGSGTDFTLKISRVEAEDVGVYYCQHSREFPWTFGGGTKVEIK
Unit label: s⁻¹
koff: 0.0145

Binder: AB1520085 Fab (Fab, V domains shown, Fab of the anti-mouse GDF-15 mouse IgG1, expressed as in Spooner et al. 2015) VH: QVQLQQPGAELVMPGASVKMSCKASGYTFTDYWMHWVKQRPGQGLEWIGVIDTSESYTSYNQKFKGKATLTVDESSSTAYMQLSSLTSEDSAVYFCARGGTTVVLDYWGQGTTLTVSS VL: DIVMTQSQKFMSTSVGDRVSVTCKASQNVGTAVAWYQKKPGQSPKALIYSASTRYTGVPDRFTGSGSGTDFTLTISNVQSEDLAEYFCQQYSSSPWTFGGGTKLELK
Unit label: s⁻¹
koff: 0.0078

Could you now consider this next binder?
Exam item: Given the binder AB1170245 Fab (Fab, V domains shown, Fab of the humanized antibody, expressed as in Spooner et al. 2015) VH: EVQLVESGGGLVKPGGSLRLSCAASGFTFSSYAMSWVRQAPGKGLEWVAYISSGGDYIYYADTVKGRFTISRDNSKNTLYLQMNSLKTEDTAVYYCTRALVDNAYFDYWGQGTTVTVSS VL: DIVLTQSPDSLAVSLGERATINCRASKSVSTSSYSYMHWYQQKPGQPPKLLIKYASYLEFGVPSRFSGSGSGTDFTLTISSLQPEDVATYYCQHSREFPWTFGGGTKVEIK , write its reported koff.
Marked response: 0.0712
